Experiment: yeast display, Sf9 membrane polyspecificity reagent, FACS + sequencing; frameworks hold sequencing errors

Sequence | polyreactivity (PSR sort gate)
QVQLVESGGGLVQAGGSLRLSCAASGSTLQVYARGWYRQAPGKERELVAASSKSGGRTYYADSVKGRFTISRDNAKNTVYLQMNSLKPEDTAVYYCAADVGTAQSTYGYWGQGTQVTVSS | high polyreactivity
QVHLVESGGGLVQAGGSLRLSCAASGNTFYWYVMGWYRQAPGKERDLVARITSSGGSTNYADSVKGRFTISRDNAKNTVYLQMISLKPEDTAVYYCAADDIYLYGGGTDYYYWGQGTQVTVSS | low polyreactivity
QVQLVESGGGLVQAGGSLRLSCAASGRIFDPYAMGWYRQAPGKERELVASISWSGGRTYYADSVKGRFTISRDNAKNTVYLQMNSLKPEDTAVYYCARDYGQYGWYRYGRTYDHWGQGTQVTVSS | high polyreactivity
QVQLVESGGGLVQAGGSLRLSCAASGRILYRNAMGWYRQATGKERELVAAITTRGTSTYYADSVKGRFTISRDNAKNTVYLQMNSLKPEDTSVYYCAADSWFSYRGPLYYWGQGTKVTVSS | high polyreactivity
QVQLVESGGGLVQAGGSLRLSCAASGSTFFRYAMGWYRQAPGKEREFVAAITSSGGNTYYADSVKGRFTISRDNAKNTVYLQMNSLKPEDTAVYYCADVWYSPYVKYNYWGQGTQVTVSS | low polyreactivity
QVQLVESGGGIVQAGGSLRLSCAASGRIFKYNAMGWYRQAPGKERELVAAISWSDGSTYYADSVKGRFTISRDNAKNTVYLQMNSLKPEDTAVYYCAARGYGFPELDYWGQGTQVTVSS | high polyreactivity
QVQLVESGGGLVQAGGSLRLSCAASGRIFVYNAMGSYRQAPGKERELVAAINSGTITNSADSVKGRFTISRDNGKNTVYLQMNSRIPEDTAVSYCAAPWYPSTDYNYWGQGTQVTVSS | low polyreactivity
QVQLVESGGGLVQAGGSLRLSCAAYGRIIRWYARGWYRPSPGKERALVAAISWSGGSTYYADSVKGRFTISRDNAKNTVYLQLNSLKPEDTAVYYCNTVYAEYDYSTVDYWGQGTQVTVSS | high polyreactivity
QVQLVESGGGLVQAGGSLRLSCAASGSIFRGYAMGWYRQAPGKERELVAAITSSGGSTNYADSVKGRFTISRDNAKNTVYLQMNSLKPEDTAVYYCAKAPGLWHLIQRMDYWGQGTQVTVSS | low polyreactivity
QVQLVESGGGLVQAGGSLRLSCAASGFTIAQNVMGWYRQAPGKERELVAAISVSGGSTYYADSVKGRFTISRDNAKNTVYLQMNSLKPEDTAVYYCNAVAGVTKRVDLSRSGYWGLGTQVTVSS | high polyreactivity
QVKRVESGGGLVQAGGSLRLSCAASGSIVVTNAMGWYRQAPGKERELVAAITSSGSTDYADSVKGRFTISRDNAKNTVSLLMKILKREDTAVYYCNADVATGIFYGYDSWGQGTQVTVSS | low polyreactivity
